# measured_target: Phospholipid hydroperoxide glutathione peroxidase GPX4 (Homo sapiens) (UniProt P36969)
# Sequence (P36969 whole entry, looked up): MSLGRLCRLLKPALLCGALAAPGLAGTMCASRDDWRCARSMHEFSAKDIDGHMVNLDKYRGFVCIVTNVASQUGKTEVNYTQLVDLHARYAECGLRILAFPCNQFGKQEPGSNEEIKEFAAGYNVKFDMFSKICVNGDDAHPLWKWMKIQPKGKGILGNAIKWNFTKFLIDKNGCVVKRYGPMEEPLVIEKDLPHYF
# run_description: Primary qHTS Assay for Inhibitors of Recombinant Selenoprotein Glutathione Peroxidase 4 (GPX4) (AID 1845192); also: nearly all actives have a fitted effect of over 65% in size; as to activity change, negative = inhibition: % is scaled to controls: 0 for no effect and ±100 for the full control effect
# condition_context: recombinant GPX4, GR-coupled NADPH fluorescence, 15 min; series mostly up to 50 µM
Results filed as inconclusive are left out. Active and inactive are the calls of the source. Calls follow the shape of the dose curve; as a rule, active = well fitted inhibition curve with a large enough effect; inconclusive = small, poorly fitted or top-dose-only effect; inactive = flat fitted curve, though single readings scatter.
measured_property: activity change, negative = inhibition

molecule="CC1C=CC2CCCCC2C1CCC1CC(O)CC(=O)O1 (stereo unspecified)" measured_property="activity change, negative = inhibition" reported_measurement=inactive
molecule="C=CC(C)(CC/C=C(\\C)C(=O)OC)OC1OC(COC(=O)CC(C)(O)CC(=O)O)C(OC2OC(CO)C(O)C(O)C2O)C(O)C1O (stereo unspecified)" measured_property="activity change, negative = inhibition" reported_measurement=inactive
molecule=CSc1ccc(C(=O)N[C@@H]2CCCC[C@@H]2NC(=O)CNC(=O)c2cc(C(F)(F)F)ccc2NC(=O)NC(C)C)cc1 measured_property="activity change, negative = inhibition" reported_measurement=inactive
molecule="CC12CCC(C(OC3OC(COC4OCC(O)(CO)C4O)C(O)C(O)C3O)C1)C(C)(C)O2 (stereo unspecified)" measured_property="activity change, negative = inhibition" reported_measurement=inactive
molecule="CC(C)=CCC/C(C)=C/CC/C(C)=C/COC1OC(COC2OCC(OC3OCC(O)C(O)C3O)C(O)C2O)C(O)C(OC2OC(C)C(OC3OC(C)C(OC4OCC(OC5OC(C)C(O)C(O)C5O)C(O)C4O)C(O)C3O)C(O)C2O)C1O (stereo unspecified)" measured_property="activity change, negative = inhibition" reported_measurement="4.38% [at 9.73 µM] (inactive)"
molecule=CC(C)C[C@H](CC(=O)NO)C(=O)N[C@H](C(=O)N[C@@H](C)C(=O)NCCN)C(C)(C)C measured_property="activity change, negative = inhibition" reported_measurement="-8.26% [at 9.73 µM] (inactive)"
molecule="CC(C)(O[C@@H]1O[C@H](CO)[C@@H](O)[C@H](O)[C@H]1O)C(OC(=O)/C=C\\c1ccc(O)cc1)C(=O)OCc1ccc(O[C@@H]2O[C@H](CO)[C@@H](O)[C@H](O)[C@H]2O)cc1 (stereo partly specified)" measured_property="activity change, negative = inhibition" reported_measurement=inactive
molecule=Cc1ccc(Cc2c(C)nc3nc(SCC(=O)NCCN4CCNCC4)nn3c2C)cc1 measured_property="activity change, negative = inhibition" reported_measurement=inactive
molecule=CC(C)O[C@@H]1O[C@H](CO)[C@@H](O)[C@H](O)[C@H]1O measured_property="activity change, negative = inhibition" reported_measurement=inactive
molecule=Cc1cc(C)nc(NS(=O)(=O)c2ccc(NC(=S)NC(=O)COc3ccc(Br)cc3Cl)cc2)n1 measured_property="activity change, negative = inhibition" reported_measurement=inactive

QUERY: For the molecule C=C1C[C@]23C[C@H]1[C@@H](O)C[C@H]2[C@@]12C=C[C@H](O)[C@@](C)(C(=O)O1)[C@H]2[C@@H]3C(=O)O , what activity change, negative = inhibition is on record?
RESULT: inactive

QUERY: For the molecule CN1CCN(c2ccc(C(=O)Nc3n[nH]c4ccc(Cc5cc(F)cc(F)c5)cc34)c(NC3CCOCC3)c2)CC1 , what activity change, negative = inhibition is on record?
RESULT: inactive
